protocol.details: Drug uptake in Sprague-Dawley rat blood at 20 mg/kg, ip measured after 24 hrs by LC-MS/MS analysis
Assay type: ADME, organism-based
measurement.setup: whole blood, read-out: Drug uptake
test.readout: concentration at 24 h (nM)

{"sample.smiles": "CC(C)Cc1nn(C)c(=O)c2c(SCCCO)n(Cc3ccc(C#CCCCOc4ccc(C[C@H](N)C(=O)O)cc4)c4ccccc34)cc12", "quantity.unit": "nM", "concentration at 24 h": 76}
{"sample.smiles": "CC(C)Cc1nn(C)c(=O)c2c(SCCCO)n(Cc3cccc4ccccc34)cc12", "quantity.unit": "nM", "concentration at 24 h": 63}

* * *

protocol.details: Drug uptake in Sprague-Dawley rat brain at 20 mg/kg, ip measured after 6 hrs by LC-MS/MS analysis
Type: ADME, organism-based
measurement.setup: read-out: Drug uptake
test.readout: concentration at 6 h (nM)

a. CC(C)Cc1nn(C)c(=O)c2c(SCCCO)n(Cc3cccc4ccccc34)cc12
b. CC(C)Cc1nn(C)c(=O)c2c(SCCCO)n(Cc3ccc(C#CCCCOc4ccc(C[C@H](N)C(=O)O)cc4)c4ccccc34)cc12
Between item a and item b , which reported concentration at 6 h is smaller? Reply with the label of the item you choose. b
(b: 110 nM, a: 190 nM)

* * *

protocol.details: Drug uptake in Sprague-Dawley rat plasma at 20 mg/kg, ip measured after 24 hrs by LC-MS/MS analysis
Type: ADME, organism-based
test.readout: concentration at 24 h (nM)

P. CC(C)Cc1nn(C)c(=O)c2c(SCCCO)n(Cc3cccc4ccccc34)cc12
Q. CC(C)Cc1nn(C)c(=O)c2c(SCCCO)n(Cc3ccc(C#CCCCOc4ccc(C[C@H](N)C(=O)O)cc4)c4ccccc34)cc12
Sorting by concentration at 24 h in descending order, would P or Q appear first? Reply with the label of the item you choose. Q

* * *

protocol.details: Drug uptake in Sprague-Dawley rat lung at 20 mg/kg, ip measured after 7 days by LC-MS/MS analysis
Assay type: ADME, organism-based
measurement.setup: read-out: Drug uptake
test.readout: concentration at 168 h (nM)
The figure you give is taken to be in nM; do not add the unit.

Name the recorded concentration at 168 h of the item CC(C)Cc1nn(C)c(=O)c2c(SCCCO)n(Cc3ccc(C#CCCCOc4ccc(C[C@H](N)C(=O)O)cc4)c4ccccc34)cc12 in your answer. 110

* * *

protocol.details: Drug uptake in Sprague-Dawley rat blood at 20 mg/kg, ip measured after 6 hrs by LC-MS/MS analysis
Format: ADME, organism-based
measurement.setup: whole blood, read-out: Drug uptake
test.readout: concentration at 6 h (nM)

P. CC(C)Cc1nn(C)c(=O)c2c(SCCCO)n(Cc3cccc4ccccc34)cc12
Q. CC(C)Cc1nn(C)c(=O)c2c(SCCCO)n(Cc3ccc(C#CCCCOc4ccc(C[C@H](N)C(=O)O)cc4)c4ccccc34)cc12
Sorting by concentration at 6 h in descending order, would P or Q appear first? Reply with the label of the item you choose. Q

* * *

protocol.details: Drug uptake in Sprague-Dawley rat liver at 20 mg/kg, ip measured after 24 hrs by LC-MS/MS analysis
Format: ADME, organism-based
measurement.setup: read-out: Drug uptake
test.readout: concentration at 24 h (nM)

I. CC(C)Cc1nn(C)c(=O)c2c(SCCCO)n(Cc3cccc4ccccc34)cc12
II. CC(C)Cc1nn(C)c(=O)c2c(SCCCO)n(Cc3ccc(C#CCCCOc4ccc(C[C@H](N)C(=O)O)cc4)c4ccccc34)cc12
Sorting by concentration at 24 h in descending order, would I or II appear first? Reply with the label of the item you choose. II
(II: 940 nM, I: 60 nM)
